Reported values of EC50 for individual entries
# assay_system: T1, Macaca mulatta TF on RF/6A cells (Macaca mulatta, UniProt P13726 33-294 (human entry))
# T1 construct: also called TF-positive Macaca mulatta RF/6A cells; cynomolgus TF (cTF)
# T1 chain: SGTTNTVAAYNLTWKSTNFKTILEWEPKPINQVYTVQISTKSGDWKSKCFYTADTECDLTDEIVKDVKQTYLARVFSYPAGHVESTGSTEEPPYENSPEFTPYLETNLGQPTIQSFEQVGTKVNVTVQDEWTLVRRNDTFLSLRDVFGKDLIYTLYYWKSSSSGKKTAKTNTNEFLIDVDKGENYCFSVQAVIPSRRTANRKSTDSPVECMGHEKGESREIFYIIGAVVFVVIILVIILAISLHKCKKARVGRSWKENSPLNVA
# test_protocol: flow cytometry on Macaca mulatta RF/6A cells
Answer format: numeric, nM implied, no suffix.

Recorded EC50 of anti-TF antibody 25G1 (antibody, human IgG1, kappa, V domains shown, Human IgG1) VH: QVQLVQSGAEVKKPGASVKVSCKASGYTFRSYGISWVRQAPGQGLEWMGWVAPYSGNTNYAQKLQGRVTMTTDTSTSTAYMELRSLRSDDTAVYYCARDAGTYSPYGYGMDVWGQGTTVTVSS VL: DIQMTQSPSTLSASVGDRVTITCRASHSIDSWLAWYQQKPGKAPKLLIYKASYLESGVPSRFSGSGSGTEFTLTISSLQPDDFATYYCQLFQSLPPFTFGGGTKVEIKR , please. 0.27

Repeat with anti-TF antibody 54E (antibody, human IgG1, V domains shown, Human IgG1) VH: QVQLVQSGAEVKKPGASVKVSCKASGYTFANYYMHWVRQAPGQGLEWMGIINPSGGITVYAQKFQGRVTMTRDTSTSTVYMELSSLRSEDTAVYYCARGGSKVAALAFDIWGQGTMVTVSS VL: DIQMTQSPSSLSASVGDRVTITCQASQDISNSLNWYQQKPGKAPKLLIYDASNLETGVPSRFSGSRSGTDFTFTISSLQPEDIATYYCQQYNFHPLTFGGGTKVEIK 1.28

Repeat with anti-TF antibody 25A3 (antibody, human IgG1, kappa, V domains shown, Human IgG1) VH: QVQLVQSGAEVKKPGASVKVSCKASGYTFDVYGISWVRQAPGQGLEWMGWIAPYSGNTNYAQKLQGRVTMTTDTSTSTAYMELRSLRSDDTAVYYCARDAGTYSPFGYGMDVWGQGTTVTVSS VL: DIQMTQSPSTLSASVGDRVTITCQASQSINNWLAWYQQKPGKAPKLLIYKAYNLESGVPSRFSGSGSGTEFTLTISSLQPDDFATYYCQLFQSLPPFTFGGGTKVEIKR 0.27

Repeat with anti-TF antibody 25A (antibody, human IgG1, V domains shown, Human IgG1) VH: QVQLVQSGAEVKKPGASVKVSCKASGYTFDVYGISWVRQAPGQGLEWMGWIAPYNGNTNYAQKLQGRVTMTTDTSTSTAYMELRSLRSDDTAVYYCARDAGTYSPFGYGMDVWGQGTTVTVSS VL: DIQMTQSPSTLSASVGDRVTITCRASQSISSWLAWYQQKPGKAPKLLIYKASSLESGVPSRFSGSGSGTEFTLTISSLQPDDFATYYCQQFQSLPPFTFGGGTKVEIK 0.43
